Target: CFTR-mediated chloride transport (Homo sapiens, UniProt P13569)
Test: Corrector Assay A - membrane potential dye assay (enteroid cells)
Conditions: % of chloride transport of triple combination control (1 μM (14S)-dispiro macrocycle + 3 μM tezacaftor + 300 nM ivacaftor)
readout_kind: Corrector Assay A % activity

[[record]]
compound = "CC(C)(C)c1ccc2c(n1)N1C[C@@H](CCC(c3ccc(C4CCOCC4)cn3)Nc3cccc(n3)S(=O)(=O)NC2=O)CC1(C)C (some centres unmarked) [Compound 156]"
target_entity = "CFTR-mediated chloride transport (Homo sapiens, UniProt P13569)"
recorded_value = "++ (++ is 30-60%)"

[[record]]
compound = "CC(C)C1CC[C@@H]2CN(c3nc(-n4ccc(OCCC5C6(CC6)C56CC6)n4)ccc3C(=O)NS(=O)(=O)c3cccc(n3)N1)C(C)(C)C2 (single isomer, unassigned) [Compound 353]"
target_entity = "CFTR-mediated chloride transport (Homo sapiens, UniProt P13569)"
recorded_value = "+++ (+++ is >60%)"

[[record]]
compound = "COC(=O)C1CC[C@@H]2CN(c3nc(C(C)(C)C)ccc3C(=O)NS(=O)(=O)c3cccc(n3)N1)C(C)(C)C2 (single isomer, unassigned) [Compound 225]"
target_entity = "CFTR-mediated chloride transport (Homo sapiens, UniProt P13569)"
recorded_value = "++ (++ is 30-60%)"

[[record]]
compound = "CC1CCC2CN(c3nc(C(C)(C)C)ccc3C(=O)NS(=O)(=O)c3ccn1n3)C(C)(C)C2 (single isomer, unassigned) [Compound 273]"
target_entity = "CFTR-mediated chloride transport (Homo sapiens, UniProt P13569)"
recorded_value = "++ (++ is 30-60%)"

[[record]]
compound = "CC(C)(C)c1ccc2c(n1)N1C[C@@H](CC[C@H](c3cccc(C4=CCOCC4)n3)Nc3cccc(n3)S(=O)(=O)NC2=O)CC1(C)C"
target_entity = "CFTR-mediated chloride transport (Homo sapiens, UniProt P13569)"
recorded_value = "+++ (+++ is >60%)"

[[record]]
compound = "CC1(COc2ccn(-c3ccc4c(n3)N3C[C@@H](CC[C@H](c5ccccn5)Nc5cccc(n5)S(=O)(=O)NC4=O)CC3(C)C)n2)CC1"
target_entity = "CFTR-mediated chloride transport (Homo sapiens, UniProt P13569)"
recorded_value = "+++ (+++ is >60%)"

[[record]]
compound = "COc1cccc(-c2ccc3c(n2)N2C[C@@H](CC[C@H](c4ccccn4)Nc4cccc(n4)S(=O)(=O)NC3=O)CC2(C)C)n1"
target_entity = "CFTR-mediated chloride transport (Homo sapiens, UniProt P13569)"
recorded_value = "+++ (+++ is >60%)"

[[record]]
compound = "C[C@@H](O)C[C@@H]1CC[C@@H]2CN(c3nc(C(C)(C)C)ccc3C(=O)NS(=O)(=O)c3cccc(n3)N1)C(C)(C)C2 (single isomer, unassigned) [Compound 28]"
target_entity = "CFTR-mediated chloride transport (Homo sapiens, UniProt P13569)"
recorded_value = "+++ (+++ is >60%)"

[[record]]
compound = "COCCc1ccc(C2CC[C@@H]3CN(c4nc(C(C)(C)C)ccc4C(=O)NS(=O)(=O)c4cccc(n4)N2)C(C)(C)C3)nc1 (some centres unmarked) [Compound 112]"
target_entity = "CFTR-mediated chloride transport (Homo sapiens, UniProt P13569)"
recorded_value = "++ (++ is 30-60%)"

[[record]]
compound = "CN(C)CC(=O)N1CCC([C@@H]2CC[C@@H]3CN(c4nc(C(C)(C)C)ccc4C(=O)NS(=O)(=O)c4cccc(n4)N2)C(C)(C)C3)CC1 (single isomer, unassigned)"
target_entity = "CFTR-mediated chloride transport (Homo sapiens, UniProt P13569)"
recorded_value = "++ (++ is 30-60%)"


Note: attention shifts to another entry.
Query block: If you can, please state the reported Corrector Assay A % activity value of CC(C)(C)c1ccc2c(n1)N1C[C@@H](CC[C@@H](c3cc(-c4cc[nH]n4)ccn3)Nc3cccc(n3)S(=O)(=O)NC2=O)CC1(C)C (single isomer, unassigned) [Compound 74] .
Result block: ++ (++ is 30-60%)

====

Biological target: CFTR-mediated chloride transport (Homo sapiens)
Assay: Corrector Assay A - membrane potential dye assay (enteroid cells)
Conditions: % of chloride transport of triple combination control (1 μM (14S)-dispiro macrocycle + 3 μM tezacaftor + 300 nM ivacaftor)
readout_kind: Corrector Assay A % activity

[[record]]
molecule = "CCOc1cccc(-c2ccc3c(n2)N2C[C@@H](CC[C@@H](c4ccccn4)Nc4cccc(n4)S(=O)(=O)NC3=O)CC2(C)C)n1"
target_entity = "CFTR-mediated chloride transport (Homo sapiens)"
readout_kind = "Corrector Assay A % activity"
recorded_value = "++ (++ is 30-60%)"

[[record]]
molecule = "CC(O)CC1CC[C@@H]2CN(c3nc(C(C)(C)C)ccc3C(=O)NS(=O)(=O)c3cccc(n3)N1)C(C)(C)C2 (single isomer, unassigned) [Compound 22]"
target_entity = "CFTR-mediated chloride transport (Homo sapiens)"
readout_kind = "Corrector Assay A % activity"
recorded_value = "++ (++ is 30-60%)"


====

Target: CFTR-mediated chloride transport (Homo sapiens)
Assay: Corrector Assay A - membrane potential dye assay (enteroid cells)
Settings: read-out: Corrector Assay A EC50; human intestinal enteroid cells, 18-24 h incubation; acute 10 μM forskolin + 300 nM ivacaftor
pEC50: −log10 of the molar value.
readout_kind: pEC50

Worked cases, answers included:
[[record]]
molecule = "CN1c2cccc(n2)S(=O)(=O)NC(=O)c2ccc(C(C)(C)C)nc2N2C[C@@H](CC[C@H]1c1ccccc1)CC2(C)C"
readout_kind = "pEC50"
recorded_value = "> 6.00"

[[record]]
molecule = "CC(C)(C)c1ccc2c(n1)N1C[C@@H](CC[C@@H](c3ncccc3Br)Nc3cccc(n3)S(=O)(=O)NC2=O)CC1(C)C (single isomer, unassigned) [Compound 54]"
readout_kind = "pEC50"
recorded_value = "< 5.52"

[[record]]
molecule = "CC1(C)CCCc2cc3c(nc21)N1C[C@@H](CCC(c2ccccn2)Nc2cccc(n2)S(=O)(=O)NC3=O)CC1(C)C (single isomer, unassigned) [Compound 263]"
readout_kind = "pEC50"
recorded_value = "> 6.00"

[[record]]
molecule = "C[C@@H](O)C[C@@H]1CC[C@@H]2CN(c3nc(C(C)(C)C)ccc3C(=O)NS(=O)(=O)c3cccc(n3)N1)C(C)(C)C2 (single isomer, unassigned) [Compound 27]"
readout_kind = "pEC50"
recorded_value = "> 6.00"

[[record]]
molecule = "CC1(C)C[C@@H]2CC[C@H](c3ccccn3)Nc3cccc(n3)S(=O)(=O)NC(=O)c3ccc(-n4ccc(OCC5CC5)n4)nc3N1C2"
readout_kind = "pEC50"
recorded_value = "> 6.00"

[[record]]
molecule = "CC1(C)C[C@@H]2CC[C@H](c3cccc(C(F)(F)F)n3)Nc3cccc(n3)S(=O)(=O)NC(=O)c3ccc(Br)nc3N1C2"
readout_kind = "pEC50"
recorded_value = "< 5.52"

[[record]]
molecule = "CC(C)(C)C#Cc1ccc2c(n1)N1C[C@@H](CC[C@H](c3ccccn3)Nc3cccc(n3)S(=O)(=O)NC2=O)CC1(C)C"
readout_kind = "pEC50"
recorded_value = "> 6.00"

[[record]]
molecule = "CC(C)(C)c1ccc2c(n1)N1C[C@@H](CCC(C3CCN(C(=O)OCc4ccccc4)CC3)Nc3cccc(n3)S(=O)(=O)NC2=O)CC1(C)C (single isomer, unassigned) [Compound 255]"
readout_kind = "pEC50"
recorded_value = "> 6.00"

[[record]]
molecule = "COC(=O)NCc1ccnc(C2CC[C@@H]3CN(c4nc(C(C)(C)C)ccc4C(=O)NS(=O)(=O)c4cccc(n4)N2)C(C)(C)C3)c1 (single isomer, unassigned) [Compound 107]"
readout_kind = "pEC50"
recorded_value = "> 6.00"

[[record]]
molecule = "CC(C)(C)c1ccc2c(n1)N1C[C@@H](CCC(CCCC(=O)NCc3ccccc3)Nc3cccc(n3)S(=O)(=O)NC2=O)CC1(C)C (stereo partly shown)"
readout_kind = "pEC50"
recorded_value = "> 6.00"


Query block: If you can, please state the reported pEC50 value of CC(C)(C)c1ccc2c(n1)N1C[C@@H](CC[C@@H](c3cc(C4=CCOCC4)ccn3)Nc3cccc(n3)S(=O)(=O)NC2=O)CC1(C)C (single isomer, unassigned) [Compound 125] .
Result block: > 6.00

Query block: Could you do the same for CC(C)(C)c1ccc2c(n1)N1C[C@@H](CCC(c3ccccn3)Nc3cccc(n3)S(=O)(=O)NC2=O)CC1(C)C (single isomer, unassigned) [Compound 292] , please?
Result block: > 6.00

====

Target: UniProtKB P13569
Assay: Corrector Assay A - membrane potential dye assay (enteroid cells)
Conditions: % of chloride transport of triple combination control (1 μM (14S)-dispiro macrocycle + 3 μM tezacaftor + 300 nM ivacaftor)
readout_kind: Corrector Assay A % activity

[[record]]
compound = "C[C@@H](O)C[C@@H]1CC[C@@H]2CN(c3nc(C(C)(C)C)ccc3C(=O)NS(=O)(=O)c3cccc(n3)N1)C(C)(C)C2 (single isomer, unassigned) [Compound 27]"
recorded_value = "++ (++ is 30-60%)"

[[record]]
compound = "CC(=O)NCc1ccc(C2CC[C@@H]3CN(c4nc(C(C)(C)C)ccc4C(=O)NS(=O)(=O)c4cccc(n4)N2)C(C)(C)C3)nc1 (stereo partly drawn) [Compound 72]"
recorded_value = "++ (++ is 30-60%)"

[[record]]
compound = "CC(C)(C)c1cccc(C2CC[C@@H]3CN(c4nc(C(C)(C)C)ccc4C(=O)NS(=O)(=O)c4cccc(n4)N2)C(C)(C)C3)n1 (single isomer, unassigned) [Compound 179]"
recorded_value = "++ (++ is 30-60%)"


Recorded values, source patent US20220313698A1.
